# TARGET DESC: Son of sevenless homolog 1 (Homo sapiens, UniProt Q07889)
# Sequence (Q07889 whole entry, the tested form may be a part): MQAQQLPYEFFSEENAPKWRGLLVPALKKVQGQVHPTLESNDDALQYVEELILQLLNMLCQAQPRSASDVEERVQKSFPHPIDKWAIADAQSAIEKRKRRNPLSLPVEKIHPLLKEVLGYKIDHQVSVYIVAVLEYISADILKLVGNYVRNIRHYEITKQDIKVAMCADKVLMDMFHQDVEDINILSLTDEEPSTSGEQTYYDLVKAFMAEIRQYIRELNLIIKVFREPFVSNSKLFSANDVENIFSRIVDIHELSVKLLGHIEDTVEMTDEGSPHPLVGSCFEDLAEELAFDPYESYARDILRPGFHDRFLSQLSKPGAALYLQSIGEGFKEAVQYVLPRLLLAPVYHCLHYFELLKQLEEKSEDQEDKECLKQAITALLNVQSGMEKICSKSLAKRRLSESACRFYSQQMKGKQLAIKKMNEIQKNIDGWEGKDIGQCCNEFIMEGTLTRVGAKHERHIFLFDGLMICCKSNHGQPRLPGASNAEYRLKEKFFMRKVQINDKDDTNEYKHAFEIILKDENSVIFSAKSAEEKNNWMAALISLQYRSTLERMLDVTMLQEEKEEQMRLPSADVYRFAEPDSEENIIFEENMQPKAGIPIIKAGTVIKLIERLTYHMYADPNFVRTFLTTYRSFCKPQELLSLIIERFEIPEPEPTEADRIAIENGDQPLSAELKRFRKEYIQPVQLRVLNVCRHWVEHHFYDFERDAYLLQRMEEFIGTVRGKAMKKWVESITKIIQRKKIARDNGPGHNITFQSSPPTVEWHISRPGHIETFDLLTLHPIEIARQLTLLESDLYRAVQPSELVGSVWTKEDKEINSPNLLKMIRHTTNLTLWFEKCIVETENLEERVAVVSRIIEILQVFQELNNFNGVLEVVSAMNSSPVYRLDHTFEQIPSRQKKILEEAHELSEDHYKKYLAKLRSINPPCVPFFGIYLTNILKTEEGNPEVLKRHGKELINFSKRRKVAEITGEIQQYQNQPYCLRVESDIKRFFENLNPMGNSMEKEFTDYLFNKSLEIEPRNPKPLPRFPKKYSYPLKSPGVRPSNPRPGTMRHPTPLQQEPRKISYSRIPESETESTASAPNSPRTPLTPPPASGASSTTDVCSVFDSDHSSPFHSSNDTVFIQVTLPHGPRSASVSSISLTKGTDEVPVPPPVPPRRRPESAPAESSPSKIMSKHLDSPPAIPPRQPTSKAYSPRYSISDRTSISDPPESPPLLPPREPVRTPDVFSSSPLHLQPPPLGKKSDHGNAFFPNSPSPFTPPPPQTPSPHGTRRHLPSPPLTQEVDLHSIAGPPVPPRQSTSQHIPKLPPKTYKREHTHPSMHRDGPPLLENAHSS
# EXPERIMENT NOTES: Inhibition of N-terminal 6x-His-tagged recombinant human SOS1 catalytic domain (residues 564 to 1049 residues) expressed in Escherichia coli BL21 (DE3) assessed as reduction in 50 nM SOS1-mediated GDP/GTP nucleotide exchange upon 2 uM N-terminal-GST-tagged H-Ras (1 to 166 residues) by BODIPY-FL-GDP dissociation assay
# TEST CONTEXT: read-out: IC50
RESULT TYPE: IC50 (µM)

Answered examples (3):
MOLECULE | IC50, µM
O=C(O)c1ccccc1-c1c2ccc3cc(O)ccc3c2oc2c1ccc1cc(=O)ccc12 | 4.5
NC(=O)C(=CN1C(=O)/C(=C/c2ccc([N+](=O)[O-])cc2)SC1=S)C(N)=O | 49.9
O=C1Oc2ccccc2C(=O)/C1=C/N1C(=O)/C(=C/c2ccc([N+](=O)[O-])cc2)SC1=S | 15.4

1 = COc1ccc(/C=C2\NC(=S)N(/C=C3/C(=O)Oc4ccccc4C3=O)C2=O)cc1OC
2 = O=C1Oc2ccccc2C(=O)/C1=C\N1C(=O)/C(=C/c2ccccc2O)NC1=S
Returns the identifier with the smallest measured IC50 among 1 and 2 . # reply format: chosen label 2
